tested on: HIV-1IIIB infected MT-4 cells; assay: Antiviral activity in HIV-1IIIB infected MT-4 cells (MTT method); type: cell-based; conditions: Human immunodeficiency virus 1, MT4, 120 h, MOI 0.01, MT-4 cells, 5 days, read-out: EC50 (concentration required for inhibition of cell disorder due to HIV infection by 50%)
pEC50 values by entry
Field pEC50 (float): negative decimal logarithm of the concentration in molar.

Consider the molecule shown here: CC(C)CN(CCO)CCC[C@H](NC(=O)c1ccc(CNCc2ncc[nH]2)cc1)C(=O)N[C@@H](C)c1cccc2ccccc12 What is its recorded pEC50?
7.70

* * *

tested on: HIV-1IIIB infected MT-4 cells; assay: Antiviral activity in HIV-1IIIB infected MT-4 cells (MTT method); type: cell-based; conditions: Human immunodeficiency virus 1, MT4, 120 h, MOI 0.01, MT-4 cells, 5 days, read-out: EC50 (concentration required for inhibition of cell disorder due to HIV infection by 50%)
quantity.name: pEC50
Field pEC50 (float): negative decimal logarithm of the concentration in molar.

# value lookup — system HIV-1IIIB infected MT-4 cells, readout pEC50, item C[C@H](NC(=O)[C@H](CCCSC(=N)N)NC(=O)c1ccc(CNCc2ccccn2)cc1)c1cccc2ccccc12
7.16

Field entry: CC(C)CN(CCC[C@H](NC(=O)c1ccc(CNCc2ncc[nH]2)cc1)C(=O)N[C@@H](C)c1cccc2ccccc12)CC(C)C
8.17

Field entry: C[C@H](NC(=O)[C@H](CCCN(C)C1CCCCC1)NC(=O)c1ccc(CNCc2ncc[nH]2)cc1)c1cccc2ccccc12
7.84
